biological target: CLR/RAMP1 receptor (Homo sapiens, UniProt O60894+Q16602); experiment: CLR/RAMP1 cAMP assay, antagonist mode (CGRP-stimulated); type: cell-based; conditions: CLR/RAMP1 versus CLR/RAMP2
Sequence (Q16602 23-461): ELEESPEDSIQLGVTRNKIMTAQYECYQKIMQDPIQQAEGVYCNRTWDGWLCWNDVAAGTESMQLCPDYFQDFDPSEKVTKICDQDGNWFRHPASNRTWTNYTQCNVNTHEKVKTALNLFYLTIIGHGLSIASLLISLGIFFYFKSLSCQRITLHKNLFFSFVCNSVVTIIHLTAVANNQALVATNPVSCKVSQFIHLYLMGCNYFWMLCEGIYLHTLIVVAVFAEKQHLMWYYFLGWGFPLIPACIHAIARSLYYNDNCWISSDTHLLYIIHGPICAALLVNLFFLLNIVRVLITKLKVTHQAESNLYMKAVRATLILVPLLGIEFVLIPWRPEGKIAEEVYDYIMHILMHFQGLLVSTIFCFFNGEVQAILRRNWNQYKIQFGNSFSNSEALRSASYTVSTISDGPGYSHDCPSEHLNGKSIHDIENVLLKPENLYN
Sequence (O60894 27-148): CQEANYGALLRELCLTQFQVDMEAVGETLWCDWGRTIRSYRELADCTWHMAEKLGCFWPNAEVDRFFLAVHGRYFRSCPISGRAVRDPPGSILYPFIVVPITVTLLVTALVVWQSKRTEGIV
MEASURED PARAMETER: receptor selectivity of antagonists, in words

Ace-YNWNSFGLRF-miniPEG-K(PAL)VQKLAHQIYQFTDKDVAPRSKISPQGY-NH2 [SEQ ID NO: 148] | pan-specific
miniPEG-K(PAL)VQKLSAPVDPSSPHSY-NH2 [SEQ ID NO: 140] | CLR/RAMP1-selective
Ace-YGGFLRRIRPKLK-miniPEG-K(Pal)VQKLSAPVDPSSPHSY-NH2 [SEQ ID NO: 146] | CLR/RAMP1-selective
Ace-Y(D-Ala)GF(D-Leu)-miniPEG-K(Pal)VQKLSAPVDPSSPHSY-NH2 [SEQ ID NO: 145] | CLR/RAMP1-selective
Ace-KRPPGFSPFR-miniPEG-K(Pal)VQKLAHQIYQFTDKDVAPRSKISPQGY-NH2 [SEQ ID NO: 149] | pan-specific
